test system: ATP; test: switch fluorescence ratio, 500 uM ATP over buffer (Cy3 cluster intensity, sum of 5 cycles each) (fold (ratio)); higher = stronger signal-on switching upon ATP binding; sequences stand for … in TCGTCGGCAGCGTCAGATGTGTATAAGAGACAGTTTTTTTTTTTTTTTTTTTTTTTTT…TC; details: aptamer strand: ATP DNA aptamer (quencher-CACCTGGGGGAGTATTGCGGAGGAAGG + anchor), 100 nM annealed; ATP concentration: 500 uM;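 also: ATP exposure 15 min at 22 °C before imaging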
Give switch fluorescence ratio for every item shown.
Numbers only.

Dear colleague, could you send me switch fluorescence ratio for each of the items below? Thanks.
1. CTTTAAGGGA
2. AGTTAGACTT
3. TAAGAAAGTT
4. TCCTGGGGGG
5. AATTTCGCAA
6. TTTAAGCGCC
7. TAAGTGGAAT
8. CCAGATAACG

[0.987, 1.02, 1.41, 1.04, 3.4, 0.966, 0.999, 1.04]

Look at each sequence and report its switch fluorescence ratio.
1. TCGATATTGG
2. CGTTTATTCA
3. CCAAGGGGGG
4. GCGTTGGGAC
5. ACAGCGGCTA
6. GGGTAGAGTT

[1.02, 1.04, 1.11, 1.04, 1.02, 0.966]

Your task in this section: give switch fluorescence ratio for each listed record.
1. AGGGGAAACA
2. ATCATGGGGG
3. TTGTGTGTAG
4. GCTGTTGGAG
5. AGGGGTCTCT
6. ATACCTGAGT

1.01
0.986
1.04
1.02
0.985
1.21

---

tested on: ATP; assay: switch fluorescence ratio, 500 uM ATP over buffer (Cy3 cluster intensity, sum of 5 cycles each) (fold (ratio)); higher = stronger signal-on switching upon ATP binding; sequences stand for … in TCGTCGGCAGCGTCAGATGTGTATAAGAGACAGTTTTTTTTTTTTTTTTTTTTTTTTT…TC; settings: aptamer strand: ATP DNA aptamer (quencher-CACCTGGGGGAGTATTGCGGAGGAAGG + anchor), 100 nM annealed; ATP concentration: 500 uM;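 also: ATP exposure 15 min at 22 °C before imaging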
MEASUREMENT_LABEL: switch fluorescence ratio
Give bare numbers.

Sample records with switch fluorescence ratio:
sequence_chain=CGATGGAGAG measurement_target=ATP numeric_value=1.03
sequence_chain=TTTTTATCAT measurement_target=ATP numeric_value=0.998

State recorded switch fluorescence ratio for all listed sequences.
1. ACTTGAGGGA
2. CGTATAATAG
3. CGCCCGTTGT
4. AATGGATAAC
5. TCGGGTTGAG

1. 0.974
2. 1.02
3. 1.01
4. 0.986
5. 1.01

---

tested on: ATP; assay: switch fluorescence ratio, 500 uM ATP over buffer (Cy3 cluster intensity, sum of 5 cycles each) (fold (ratio)); higher = stronger signal-on switching upon ATP binding; sequences stand for … in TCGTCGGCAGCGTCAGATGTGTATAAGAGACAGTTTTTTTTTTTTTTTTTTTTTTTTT…TC; details: aptamer strand: ATP DNA aptamer (quencher-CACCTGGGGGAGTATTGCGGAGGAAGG + anchor), 100 nM annealed; ATP concentration: 500 uM;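 also: ATP exposure 15 min at 22 °C before imaging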
MEASUREMENT_LABEL: switch fluorescence ratio

These solved cases illustrate the format of a correct answer.
sequence_chain=TTTGCCCTGG measurement_target=ATP result=1.1
sequence_chain=AACTTTTATG measurement_target=ATP result=1
sequence_chain=TAGCTAATTT measurement_target=ATP result=0.979
sequence_chain=GCTTGGGGAT measurement_target=ATP result=1.01
sequence_chain=GCGAGTTATG measurement_target=ATP result=1.03

Items follow; give switch fluorescence ratio for each.
1. TATGAAAGTG
2. CTACGGGATT
3. AACCAGGGGC
4. TTCTGGTTGT

0.983
1.33
1.37
0.987

For each of the items listed, what is its switch fluorescence ratio?
1. AGGGCGGGGT
2. ACGTAAAGAC

1: 1.02; 2: 1.17

Your task in this section: give switch fluorescence ratio for each listed record.
1. CATGTTGCTG
2. CTTGGGGTTA
3. ATATTCTGAA
4. GGATCCGTTG
5. ATTCCGGCGG
6. TTTCGGTTAA
7. TTTGTTTTTA
8. GGCGGGAGGA

1: 1.09; 2: 0.998; 3: 0.976; 4: 0.978; 5: 0.976; 6: 1.09; 7: 1.02; 8: 1.02
